Test: physchem
Conditions: ethyl acetate, organic solvent or mixture
readout.name: solubility (µg/mL)

Need solubility of CCCCCCCCCCCCCCCC(=O)NCCOC(=O)OCC [Example 1] , thanks.
10000

A = CCCCCCCCCCCCCCCC(=O)NCCOC(=O)OCC(C)C [Example 2]
B = CCCCCCCCCCCCCCCC(=O)NCCCOC(=O)OCC [Example 3]
Could you tell me which of A and B has the lower solubility reading? # reply format: chosen label
A

###

Assay: physchem
Conditions: n-octanol, organic solvent or mixture
readout.name: solubility (µg/mL)

Need solubility of CCCCCCCCCCCCCCCC(=O)NCCOC(=O)NCC(=O)OCC , thanks.
10000

Need solubility of CCCCCCCCCCCCCCCC(=O)NCCOC(=O)OCC(C)C , thanks.
10000

Need solubility of CCCCCCCCCCCCCCCC(=O)NCCCOC(=O)OCC , thanks.
10000

Need solubility of CCCCCCCCCCCCCCCC(=O)NCCOC(=O)OCC , thanks.
10000

###

Assay: Lipid/water partition parameter RM from thin-film chromatography on silica gel
Type: physicochemical
Details: Solvent 1: 100% ethyl acetate; silica gel
readout.name: RF solvent 1

Need RF solvent 1 of O=C(CCCCCCCC(=O)NCCOC1CCCCO1)NCCOC1CCCCO1 (centres unmarked) , thanks.
0.56

Need RF solvent 1 of CCCCCCCCCCCCCCCC(=O)NCCCOC(=O)OCC , thanks.
0.61

Need RF solvent 1 of CCCCCCCCCCCCCCCC(=O)NCCOC(=O)NCc1ccccc1 , thanks.
0.47

Need RF solvent 1 of CCCCCCCC/C=C\CCCCCCCC(=O)NCCOC(=O)OCC , thanks.
0.63

Need RF solvent 1 of CCCCCCCCCCCCCCCC(=O)NCCOC(=O)OCC(C)C , thanks.
0.66

I = CCCCCCCCCCCCCCCC(=O)NCCOC(=O)NCC(=O)OCC
II = CCCCCCCCCCCCCCCC(=O)NCCOC(=O)OCC
III = CCCCCCCCCCCCCCCC(=O)NCCOC(=O)OCCN1CCCCC1
Please order the records by their reported RF solvent 1, lowest number first. Note for the reader: the ranking is given by listing the labels in the order requested.
III, I, II
(III: 0.05, I: 0.40, II: 0.62)

###

Test: Lipid/water partition parameter RM from thin-film chromatography on silica gel
Format: physicochemical
Conditions: Solvent 1: 100% ethyl acetate; RM of derivative minus RM of corresponding alkanolamide
readout.name: ΔRM solvent 1

Worked set:
Need ΔRM solvent 1 of O=C(CCCCCCCC(=O)NCCOC1CCCCO1)NCCOC1CCCCO1 (centres unmarked) [Example 12] , thanks.
−0.494

Need ΔRM solvent 1 of CCCCCCCCCCCCCCCC(=O)NCCOC(=O)OCCN1CCCCC1 [Example 7] , thanks.
0.49

Need ΔRM solvent 1 of CCCCCCCCCCCCCCCC(=O)NCCOC(=O)OCC(C)C [Example 2] , thanks.
−1.076

1 = CCCCCCCCCCCCCCCC(=O)NCCCOC(=O)OCC [Example 3]
2 = CCCCCCCCCCCCCCCC(=O)NCCOC(=O)NCC(=O)OCC [Example 6]
Could you tell me which of 1 and 2 has the lower ΔRM solvent 1 reading? # reply format: chosen label
1

###

Assay: Solubility in water and in organic solvents (chemical and physical characteristics)
Details: ethanol
readout.name: solubility in organic solvents: ethanol (mg/ml in ethanol)
Number in mg/ml in ethanol, nothing else.

Worked set:
Need solubility in organic solvents: ethanol of O=C(CCCCCCCC(=O)NCCOC1CCCO1)NCCOC1CCCO1 (stereo not shown) , thanks.
10

Need solubility in organic solvents: ethanol of CCCCCCCCCCCCCCCC(=O)NCCOC1CCCO1 (stereo not shown) , thanks.
10

Next:
Need solubility in organic solvents: ethanol of O=C(CCCCCCCC(=O)NCCOC1CCCCO1)NCCOC1CCCCO1 (stereo not shown) , thanks.
10

###

Experiment: physchem
Settings: water
readout.name: solubility (µg/mL)
Number in µg/mL, nothing else.

Need solubility of CCCCCCCCCCCCCCCC(=O)NCCOC(=O)OCCN1CCCCC1.CS(=O)(=O)O , thanks.
10000

###

Test: Lipid/water partition parameter RM from thin-film chromatography on silica gel
Assay type: physicochemical
Conditions: Solvent 2: heptane:isopropanol:ethyl acetate:H2O 40:20:50:2; RM=log (1/Rf−1)
readout.name: RM solvent 2

Worked set:
Need RM solvent 2 of CCCCCCCCCCCCCCCC(=O)NCCOC1CCCCO1 (stereo not shown) [Example 11] , thanks.
−0.269

Need RM solvent 2 of CCCCCCCCCCCCCCCC(=O)NCCOC1CCCO1 (stereo not shown) [Example 9] , thanks.
−0.213

Need RM solvent 2 of CCCCCCCCCCCCCCCC(=O)NCCOC(=O)OCC(C)C [Example 2] , thanks.
−0.432

Need RM solvent 2 of O=C(CCCCCCCC(=O)NCCOC1CCCO1)NCCOC1CCCO1 (stereo not shown) [Example 10] , thanks.
0.105

Need RM solvent 2 of CCCCCCCCCCCCCCCC(=O)NCCOC(=O)OCC [Example 1] , thanks.
−0.368

1 = CCCCCCCCCCCCCCCC(=O)NCCCOC(=O)OCC [Example 3]
2 = CCCCCCCCCCCCCCCC(=O)NCCOC(=O)NCC(=O)OCC [Example 6]
Which entry has a larger number for RM solvent 2, 1 or 2 ? # reply format: chosen label
2

###

Biological target: CB2 receptor (Rattus norvegicus)
Construct: endogenous in cells
Sequence (Q9QZN9 1-360): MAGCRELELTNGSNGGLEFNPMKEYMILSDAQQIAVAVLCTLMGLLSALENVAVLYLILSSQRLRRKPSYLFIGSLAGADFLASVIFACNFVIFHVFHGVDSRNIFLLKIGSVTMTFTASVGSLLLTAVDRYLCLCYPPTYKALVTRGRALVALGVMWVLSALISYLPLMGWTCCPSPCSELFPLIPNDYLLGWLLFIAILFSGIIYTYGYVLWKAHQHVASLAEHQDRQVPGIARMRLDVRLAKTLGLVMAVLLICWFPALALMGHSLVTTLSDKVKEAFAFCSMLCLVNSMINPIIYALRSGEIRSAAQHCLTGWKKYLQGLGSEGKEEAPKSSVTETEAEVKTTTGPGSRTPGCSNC
Test: Binding of [3H]WIN55,212-2 to membranes of RBL-2H3+ cells
Conditions: cell membranes, 300 pM ligand, 90' at 30° C.; read-out: Ki CB2 receptor RBL-2H3 + cells Lig. [3H]WIN55, 212-2
readout.name: Ki (nM)

What measured Ki is associated with CCCCCCCCCCCCCCCC(=O)NCCOC(=O)NCC(=O)OCC on CB2 receptor (Rattus norvegicus)?
1

1 = CCCCCCCCCCCCCCCC(=O)NCCOC(=O)OCC
2 = CCCCCCCCCCCCCCCC(=O)NCCOC(=O)OCCN1CCCCC1
Which entry has a larger number for Ki, 1 or 2 ? # reply format: chosen label
2

###

Target: CB2 receptor (Rattus norvegicus)
Construct: endogenous in cells; host or cells: rat RBL-2H3+ leukemic basophilic cells
Assay: Stimulation of cyclic AMP (cAMP) by forskolin in RBL-2H3+ cells
Format: cell-based
Conditions: 1 μM forskolin, + HU-210 (0.5 μM), read-out: IC50 on forskolin-stimulated cAMP with HU-210
readout.name: IC50

Need IC50 of CCCCCCCCCCCCCCCC(=O)NCCOC(=O)NCC(=O)OCC , thanks.
> 20 µM

###

Target: CB2 receptor (Rattus norvegicus, UniProt Q9QZN9)
Construct: endogenous in cells; host or cells: rat RBL-2H3+ leukemic basophilic cells
Sequence (Q9QZN9 1-360): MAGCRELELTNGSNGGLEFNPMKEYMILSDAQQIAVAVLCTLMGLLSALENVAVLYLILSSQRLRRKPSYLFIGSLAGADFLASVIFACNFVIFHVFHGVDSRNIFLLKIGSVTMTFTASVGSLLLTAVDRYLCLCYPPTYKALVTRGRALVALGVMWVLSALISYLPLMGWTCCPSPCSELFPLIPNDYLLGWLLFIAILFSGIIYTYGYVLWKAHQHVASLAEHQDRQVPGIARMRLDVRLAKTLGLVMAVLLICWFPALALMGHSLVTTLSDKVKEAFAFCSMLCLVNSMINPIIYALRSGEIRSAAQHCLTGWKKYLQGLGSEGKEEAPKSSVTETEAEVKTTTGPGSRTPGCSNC
Assay: Stimulation of cyclic AMP (cAMP) by forskolin in RBL-2H3+ cells
Format: cell-based
Conditions: 1 μM forskolin, 10' at 37° C., read-out: IC50 on forskolin-stimulated cAMP
readout.name: pIC50
Lab note — pIC50 values are minus log10 of concentrations in M.

Need pIC50 of CCCCCCCCCCCCCCCC(=O)NCCOC(=O)NCC(=O)OCC [Example 6] , thanks.
5.72

###

Test: Lipid/water partition parameter RM from thin-film chromatography on silica gel
Type: physicochemical
Conditions: Solvent 1: 100% ethyl acetate; RM=log (1/Rf−1)
readout.name: RM solvent 1

Need RM solvent 1 of CCCCCCCCCCCCCCCC(=O)NCCOC(=O)OCC(C)C , thanks.
−0.288

Need RM solvent 1 of O=C(CCCCCCCC(=O)NCCOC1CCCO1)NCCOC1CCCO1 (centres unmarked) , thanks.
−0.035

Need RM solvent 1 of CCCCCCCC/C=C\CCCCCCCC(=O)NCCOC(=O)OCC , thanks.
−0.231

Need RM solvent 1 of CCCCCCCCCCCCCCCC(=O)NCCOC1CCCO1 (centres unmarked) , thanks.
0.158

Need RM solvent 1 of CCCCCCCCCCCCCCCC(=O)NCCOC(=O)OCCN1CCCCC1 , thanks.
1.28

1 = CCCCCCCCCCCCCCCC(=O)NCCOC(=O)NCC(=O)OCC
2 = CCCCCCCCCCCCCCCC(=O)NCCOC(=O)OCC
Which entry has a larger number for RM solvent 1, 1 or 2 ? # reply format: chosen label
1
(1: 0.176, 2: −0.213)

The reported numbers originate from patent US6864285B1.
